Reported values of TGI for individual entries
Test system: UACC-62 melanoma
Experiment: NCI tumour cell line growth inhibition, 48 h

Solved cases below.
- compound: "O=C(CCCc1cccc2[nH]c3c(c12)CN(Cc1ccccc1)CC3)c1ccc(F)cc1"
  testedSystem: "UACC-62 melanoma"
  TGI: "> 100 µM"
- compound: "C[C@H]1C[C@@H](n2c(Nc3ccc(OC(F)(F)F)cc3)nc3cc(CCC(=O)O)ccc32)CC(C)(C)C1"
  testedSystem: "UACC-62 melanoma"
  TGI: "17.7 µM"
- compound: "CC(=O)CC[N+](C)(C)C"
  testedSystem: "UACC-62 melanoma"
  TGI: "52.4 µM"
- compound: "CN(C)N1C(=O)C(=O)N(c2cccc3ccccc23)C1=O"
  testedSystem: "UACC-62 melanoma"
  TGI: "> 10 µM"
- compound: "CC1=C[P+](c2ccccc2)(c2ccccc2)c2ccccc2O1"
  testedSystem: "UACC-62 melanoma"
  TGI: "41.1 µM"

INPUT: Data request, read-out TGI, for CC(C)(C)OC(=O)NC(CSCc1ccc(C(=O)c2ccccc2)cc1)C(=O)N1CCN(CCCCN2c3ccccc3Sc3cc(N=[N+]=[N-])ccc32)CC1 (stereo not given)
OUTPUT: > 100 µM
